# System: Echinochloa crus-galli
# Experiment Summary: Herbicidal activity against Echinochloa crus-galli (barnyard grass) assessed as stalk inhibition at 100 mg/l
# Assay type: functional
Items are presented alongside their recorded inhibition at 100 µg/mL.
Write the answer as a number in %, unit excluded.

Examples with their reported inhibition at 100 µg/mL follow.
C/C(O)=C1/C(=O)NC(Cc2ccccc2Cl)C1=O (stereo not given) = 35.7
CCCCCCC1NC(=O)/C(=C(/C)O)C1=O (stereo not given) = 66.9

Which inhibition at 100 µg/mL reading was recorded for the compound C/C(O)=C1/C(=O)NC(C/C=C/c2ccccc2)C1=O (stereo not given) ?
42.5

Next: COc1ccc(C(=O)CC2NC(=O)/C(=C(/C)O)C2=O)cc1 (stereo not given)
62.6

Cool, now C/C(O)=C1/C(=O)NC(Cc2ccc(Cl)cc2)C1=O (stereo not given)
37.8

Next up: COc1ccc(CC2NC(=O)/C(=C(/C)O)C2=O)cc1 (stereo not given)
41.2

Continue with C/C(O)=C1/C(=O)NC(Cc2ccc(Cl)cc2Cl)C1=O (stereo not given)
19.1

----------
# Test system: Echinochloa crus-galli
# Experiment Summary: Herbicidal activity against Echinochloa crus-galli (barnyard grass) assessed as stalk inhibition at 100 mg/l
# Assay type: functional
Property Label: inhibition at 100 µg/mL (%)
The reply should contain only the number, in %.

C/C(O)=C1/C(=O)NC(CC(=O)c2ccccc2)C1=O (stereo not drawn) = 36.4
CCCCC1NC(=O)/C(=C(/C)O)C1=O (stereo not drawn) = 32.3

Continue with the compound presented below.
Requested read-out: inhibition at 100 µg/mL. Entry: C/C(O)=C1/C(=O)NC(Cc2ccc([N+](=O)[O-])cc2)C1=O (stereo not drawn)
41.6
